Target: T1, human MSLN on OVCAR3 tumor cells (human, UniProt Q13421 296-598)
T1 construct: whole, on cells; also called human MSLN protein
T1 sequence (Q13421 other isoform, or with tags, fused parts or gaps): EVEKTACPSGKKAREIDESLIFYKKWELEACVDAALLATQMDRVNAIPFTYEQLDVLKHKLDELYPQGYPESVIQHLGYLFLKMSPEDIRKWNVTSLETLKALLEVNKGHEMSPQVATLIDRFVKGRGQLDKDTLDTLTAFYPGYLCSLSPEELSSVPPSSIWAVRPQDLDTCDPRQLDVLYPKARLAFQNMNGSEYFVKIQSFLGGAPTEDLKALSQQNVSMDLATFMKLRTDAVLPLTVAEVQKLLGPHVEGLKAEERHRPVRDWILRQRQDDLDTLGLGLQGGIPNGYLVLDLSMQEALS
Assay: FACS, OVCAR3 cells
reported_metric: pEC50
# pEC50 = -log10(concentration in molar units)

stdin: Answer with the recorded pEC50 for the binder listed here: F7.44.20-H11 (scFv, not shown: small tags and cut ends, also called S009-F7.44.20 humanized antibody VH2 + VL3) scFv: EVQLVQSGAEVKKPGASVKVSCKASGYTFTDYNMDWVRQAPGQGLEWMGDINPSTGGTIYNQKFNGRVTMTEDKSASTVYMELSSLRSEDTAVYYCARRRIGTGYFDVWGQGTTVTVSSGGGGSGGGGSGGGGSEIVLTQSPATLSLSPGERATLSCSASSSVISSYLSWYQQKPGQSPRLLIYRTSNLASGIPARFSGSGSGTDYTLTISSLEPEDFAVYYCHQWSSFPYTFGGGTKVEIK
stdout: 9.21

stdin: Query pEC50 for F7.44.20-H2 (scFv, not shown: small tags and cut ends, also called S009-F7.44.20 humanized antibody VH1 + VL2) scFv: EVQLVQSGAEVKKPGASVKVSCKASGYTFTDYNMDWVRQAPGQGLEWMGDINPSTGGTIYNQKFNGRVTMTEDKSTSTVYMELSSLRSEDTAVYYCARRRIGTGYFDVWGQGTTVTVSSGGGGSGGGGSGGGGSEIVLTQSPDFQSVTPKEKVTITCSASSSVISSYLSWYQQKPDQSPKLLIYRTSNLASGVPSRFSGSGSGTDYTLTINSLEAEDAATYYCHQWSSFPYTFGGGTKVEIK
stdout: 9.00
